AUC25 values by entry
- Test system: Mycobacterium tuberculosis Erdman (autoluminescent)
- Protocol notes: AUC25, normalised area under dose response up to IC25 (three-drug combination) (fraction (0-1)); higher = more potent at low dose
- Conditions used: in vitro model: valerate; time point: terminal (~4-5 doublings, model-specific)
// no unit, no text: just the number

COc1nc2ccc(Br)cc2cc1[C@@H](c1ccccc1)[C@@](O)(CCN(C)C)c1cccc2ccccc12 [bedaquiline] + NNC(=O)c1ccncc1 [isoniazid] + COc1c(N2C[C@@H]3CCCN[C@@H]3C2)c(F)cc2c(=O)c(C(=O)O)cn(C3CC3)c12 [moxifloxacin] | 0.067
NNC(=O)c1ccncc1 [isoniazid] + COc1c(N2C[C@@H]3CCCN[C@@H]3C2)c(F)cc2c(=O)c(C(=O)O)cn(C3CC3)c12 [moxifloxacin] + CO[C@H]1/C=C/O[C@@]2(C)Oc3c(C)c(O)c4c(O)c(c(/C=N/N5CCN(C)CC5)c(O)c4c3C2=O)NC(=O)/C(C)=C\C=C\[C@H](C)[C@H](O)[C@@H](C)[C@@H](O)[C@@H](C)[C@H](OC(C)=O)[C@@H]1C [rifampicin] | 0.0263

Requested read-out: AUC25. Entry: CC(C)/N=c1\cc2n(-c3ccc(Cl)cc3)c3ccccc3nc-2cc1Nc1ccc(Cl)cc1 [clofazimine] + CC[C@@H](CO)NCCN[C@@H](CC)CO [ethambutol] + O=[N+]([O-])c1cn2c(n1)OC[C@@H](OCc1ccc(OC(F)(F)F)cc1)C2 [pretomanid]
0.0932

Same read-out for COc1nc2ccc(Br)cc2cc1[C@@H](c1ccccc1)[C@@](O)(CCN(C)C)c1cccc2ccccc12 [bedaquiline] + CC[C@@H](CO)NCCN[C@@H](CC)CO [ethambutol] + CC(=O)NC[C@H]1CN(c2ccc(N3CCOCC3)c(F)c2)C(=O)O1 [linezolid] ?
0.0559

Same read-out for CC[C@@H](CO)NCCN[C@@H](CC)CO [ethambutol] + CC(=O)NC[C@H]1CN(c2ccc(N3CCOCC3)c(F)c2)C(=O)O1 [linezolid] + CO[C@H]1/C=C/O[C@@]2(C)Oc3c(C)c(O)c4c(O)c(c(/C=N/N5CCN(C6CCCC6)CC5)c(O)c4c3C2=O)NC(=O)/C(C)=C\C=C\[C@H](C)[C@H](O)[C@@H](C)[C@@H](O)[C@@H](C)[C@H](OC(C)=O)[C@@H]1C [rifapentine] ?
0.0307

Same read-out for COc1c(N2C[C@@H]3CCCN[C@@H]3C2)c(F)cc2c(=O)c(C(=O)O)cn(C3CC3)c12 [moxifloxacin] + O=[N+]([O-])c1cn2c(n1)OC[C@@H](OCc1ccc(OC(F)(F)F)cc1)C2 [pretomanid] + CO[C@H]1/C=C/O[C@@]2(C)Oc3c(C)c(O)c4c(O)c(c(/C=N/N5CCN(C)CC5)c(O)c4c3C2=O)NC(=O)/C(C)=C\C=C\[C@H](C)[C@H](O)[C@@H](C)[C@@H](O)[C@@H](C)[C@H](OC(C)=O)[C@@H]1C [rifampicin] ?
0.0459

Same read-out for NNC(=O)c1ccncc1 [isoniazid] + CC(=O)NC[C@H]1CN(c2ccc(N3CCOCC3)c(F)c2)C(=O)O1 [linezolid] + CO[C@H]1/C=C/O[C@@]2(C)Oc3c(C)c(O)c4c(O)c(c(/C=N/N5CCN(C)CC5)c(O)c4c3C2=O)NC(=O)/C(C)=C\C=C\[C@H](C)[C@H](O)[C@@H](C)[C@@H](O)[C@@H](C)[C@H](OC(C)=O)[C@@H]1C [rifampicin] ?
0.035

Same read-out for COc1nc2ccc(Br)cc2cc1[C@@H](c1ccccc1)[C@@](O)(CCN(C)C)c1cccc2ccccc12 [bedaquiline] + O=[N+]([O-])c1cn2c(n1)OC[C@@H](OCc1ccc(OC(F)(F)F)cc1)C2 [pretomanid] + CO[C@H]1/C=C/O[C@@]2(C)Oc3c(C)c(O)c4c(O)c(c(/C=N/N5CCN(C6CCCC6)CC5)c(O)c4c3C2=O)NC(=O)/C(C)=C\C=C\[C@H](C)[C@H](O)[C@@H](C)[C@@H](O)[C@@H](C)[C@H](OC(C)=O)[C@@H]1C [rifapentine] ?
0.0466

Same read-out for CC(=O)NC[C@H]1CN(c2ccc(N3CCOCC3)c(F)c2)C(=O)O1 [linezolid] + NC(=O)c1cnccn1 [pyrazinamide] + CO[C@H]1/C=C/O[C@@]2(C)Oc3c(C)c(O)c4c(O)c(c(/C=N/N5CCN(C)CC5)c(O)c4c3C2=O)NC(=O)/C(C)=C\C=C\[C@H](C)[C@H](O)[C@@H](C)[C@@H](O)[C@@H](C)[C@H](OC(C)=O)[C@@H]1C [rifampicin] ?
0.0305

Same read-out for CC(=O)NC[C@H]1CN(c2ccc(N3CCOCC3)c(F)c2)C(=O)O1 [linezolid] + NC(=O)c1cnccn1 [pyrazinamide] + CO[C@H]1/C=C/O[C@@]2(C)Oc3c(C)c(O)c4c(O)c(c(/C=N/N5CCN(C6CCCC6)CC5)c(O)c4c3C2=O)NC(=O)/C(C)=C\C=C\[C@H](C)[C@H](O)[C@@H](C)[C@@H](O)[C@@H](C)[C@H](OC(C)=O)[C@@H]1C [rifapentine] ?
0.0324

Same read-out for NNC(=O)c1ccncc1 [isoniazid] + COc1c(N2C[C@@H]3CCCN[C@@H]3C2)c(F)cc2c(=O)c(C(=O)O)cn(C3CC3)c12 [moxifloxacin] + CO[C@H]1/C=C/O[C@@]2(C)Oc3c(C)c(O)c4c(O)c(c(/C=N/N5CCN(C6CCCC6)CC5)c(O)c4c3C2=O)NC(=O)/C(C)=C\C=C\[C@H](C)[C@H](O)[C@@H](C)[C@@H](O)[C@@H](C)[C@H](OC(C)=O)[C@@H]1C [rifapentine] ?
0.0386

###

- System: Mycobacterium tuberculosis Erdman (autoluminescent)
- Protocol notes: total FIC50 (Loewe) at 50% inhibition, three-drug combination (log2); higher = more antagonistic
- Conditions used: in vitro model: cholesterol-high 0.2 mM; time point: constant (~7 days, model-specific)
Measured attribute: total FIC50
// no unit, no text: just the number

Requested read-out: total FIC50. Entry: COc1nc2ccc(Br)cc2cc1[C@@H](c1ccccc1)[C@@](O)(CCN(C)C)c1cccc2ccccc12 [bedaquiline] + CC(=O)NC[C@H]1CN(c2ccc(N3CCOCC3)c(F)c2)C(=O)O1 [linezolid] + O=[N+]([O-])c1cn2c(n1)OC[C@@H](OCc1ccc(OC(F)(F)F)cc1)C2 [pretomanid]
0.197

###

- Tested on: Mycobacterium tuberculosis Erdman (autoluminescent)
- Protocol notes: FIC50 (Loewe) at 50% inhibition (log2); higher = more antagonistic
- Conditions used: in vitro model: acidic pH 5.7; time point: terminal (~4-5 doublings, model-specific)
Quick rule: FIC50 of at least 0.4 means 1, below that means 0.

For orientation, consider the following solved cases.
O=[N+]([O-])c1cn2c(n1)OC[C@@H](OCc1ccc(OC(F)(F)F)cc1)C2 [pretomanid] + CO[C@H]1/C=C/O[C@@]2(C)Oc3c(C)c(O)c4c(O)c(c(/C=N/N5CCN(C6CCCC6)CC5)c(O)c4c3C2=O)NC(=O)/C(C)=C\C=C\[C@H](C)[C@H](O)[C@@H](C)[C@@H](O)[C@@H](C)[C@H](OC(C)=O)[C@@H]1C | 0
CC(=O)NC[C@H]1CN(c2ccc(N3CCOCC3)c(F)c2)C(=O)O1 [linezolid] + CO[C@H]1/C=C/O[C@@]2(C)Oc3c(C)c(O)c4c(O)c(c(/C=N/N5CCN(C6CCCC6)CC5)c(O)c4c3C2=O)NC(=O)/C(C)=C\C=C\[C@H](C)[C@H](O)[C@@H](C)[C@@H](O)[C@@H](C)[C@H](OC(C)=O)[C@@H]1C [rifapentine] | 0
CO[C@H]1/C=C/O[C@@]2(C)Oc3c(C)c(O)c4c(O)c(c(/C=N/N5CCN(C6CCCC6)CC5)c(O)c4c3C2=O)NC(=O)/C(C)=C\C=C\[C@H](C)[C@H](O)[C@@H](C)[C@@H](O)[C@@H](C)[C@H](OC(C)=O)[C@@H]1C [rifapentine] + CO[C@H]1/C=C/O[C@@]2(C)Oc3c(C)c(O)c4c(O)c(c(/C=N/N5CCN(C)CC5)c(O)c4c3C2=O)NC(=O)/C(C)=C\C=C\[C@H](C)[C@H](O)[C@@H](C)[C@@H](O)[C@@H](C)[C@H](OC(C)=O)[C@@H]1C | 0
COc1c(N2C[C@@H]3CCCN[C@@H]3C2)c(F)cc2c(=O)c(C(=O)O)cn(C3CC3)c12 [moxifloxacin] + CO[C@H]1/C=C/O[C@@]2(C)Oc3c(C)c(O)c4c(O)c(c(/C=N/N5CCN(C6CCCC6)CC5)c(O)c4c3C2=O)NC(=O)/C(C)=C\C=C\[C@H](C)[C@H](O)[C@@H](C)[C@@H](O)[C@@H](C)[C@H](OC(C)=O)[C@@H]1C | 1

From here, focus on the item given below.
Item NNC(=O)c1ccncc1 [isoniazid] + COc1c(N2C[C@@H]3CCCN[C@@H]3C2)c(F)cc2c(=O)c(C(=O)O)cn(C3CC3)c12 [moxifloxacin] with FIC50 of 0.4 or above?
0
